Tested target: UniProt:P23977
Protocol text: Dopamine reuptake ([^3H]dopamine uptake) inhibition in rat brain synaptosomes
Experimental setup: DAT Uptake IC50, [3H]DA uptake inhibition; mean ± S.D., n = 3
Kindly state pIC50 for each of the entries shown.
Numbers only, as −log10 of the molar value.

Use these answered entries as a reference point.
c1ccc(C(CNc2nc(-c3ccc4nccn4c3)nc3ccccc23)c2cccnc2)cc1 (stereo not shown) ... 7.68
c1ccc(C(CNc2nc(-c3cnc4nccn4c3)nc3ccccc23)c2ccccc2)cc1 ... 8.68
Cc1cc(NS(C)(=O)=O)ccc1-c1nc(NCC(c2ccccc2)c2ccccc2)c2ccccc2n1 ... 8.05

Query: Quick check: pIC50 of `CS(=O)(=O)Nc1ccc(-c2nc(NCC(O)(c3ccccc3)c3ccccc3)c3ccccc3n2)cc1` ?
Reply: 7.96

###

Kindly state NE Uptake Emax (% I ± SD) for each of the entries shown.
Tested target: norepinephrine transporter (NET) (Rattus norvegicus, UniProt Q9WTR4)
Protocol text: Norepinephrine reuptake ([^3H]norepinephrine uptake) inhibition in rat brain synaptosomes
Experimental setup: rat brain synaptosomes; 10 nM [^3H]norepinephrine; maximal inhibition from dose-response fit
One number for each entry, in % I.

Use these answered entries as a reference point.
c1ccc(C(CNc2nc(-c3ccc4nccn4c3)nc3ccccc23)C2CCCCC2)cc1 (stereo not shown) [compound 100] ... 65
CN(C)c1ncc(-c2nc(NCC(O)(c3ccccc3)c3ccccc3)c3ccccc3n2)cn1 [compound 80] ... 71
c1ccc(C(CNc2nc(-c3cnc4nccn4c3)nc3ccccc23)c2ccccc2)cc1 [compound 89] ... 69

Now for a further molecule.
Query: Quick check: NE Uptake Emax (% I ± SD) of OC(CNc1nc(-c2ccc3[nH]ccc3c2)nc2ccccc12)(c1ccccc1)c1ccccc1 [compound 81] ?
Reply: 73

###

Tested target: DAT (Rattus norvegicus)
Construct: from tissue; host or cells: rat caudate membranes
Protocol text: Dopamine transporter binding, inhibition of [^3H]WIN35428 binding in rat caudate membranes
Experimental setup: 2 h; read-out: DAT Binding εmax
Kindly state Emax for each of the entries shown.

Use these answered entries as a reference point.
c1ccc(C(CNc2nc(-c3cnc4nccn4c3)nc3ccccc23)C2CCCCC2)cc1 (centres unmarked) ... 43%
CS(=O)(=O)Nc1ccc(-c2nc(NCC(c3ccccc3)c3ccccc3)c3ccccc3n2)c(Cl)c1 ... 30%
Cc1cc2nccn2cc1-c1nc(NCC(O)(c2ccccc2)c2ccccc2)c2ccccc2n1 ... 52%

Could you tell me Emax for each of these compounds? They are listed below.
1. OC(CNc1nc(-c2ccc3[nH]ccc3c2)nc2ccccc12)(c1ccccc1)c1ccccc1
2. c1ccc(C(CNc2nc(-c3cnc4nccn4c3)nc3ccccc23)c2ccccc2)cc1
3. c1ccc(C(CNc2nc(-c3ccc4nccn4c3)nc3ccccc23)C2CCCCC2)cc1 (centres unmarked)
4. OC(CNc1nc(-c2cnc3nccn3c2)nc2ccccc12)(c1ccccc1)c1ccccc1
5. c1ccc(C(CNc2nc(-c3ccc4[nH]ccc4c3)nc3ccccc23)c2ccccc2)cc1

Reply:
["55%", "18%", "50%", "34%", "87%"]

###

Tested target: serotonin transporter (SERT) (Rattus norvegicus)
Construct: Freshly removed whole brain minus cerebellum and caudate was homogenized; from tissue; host or cells: rat whole brain minus cerebellum and caudate, synaptosomes
Sequence (P31652 whole entry): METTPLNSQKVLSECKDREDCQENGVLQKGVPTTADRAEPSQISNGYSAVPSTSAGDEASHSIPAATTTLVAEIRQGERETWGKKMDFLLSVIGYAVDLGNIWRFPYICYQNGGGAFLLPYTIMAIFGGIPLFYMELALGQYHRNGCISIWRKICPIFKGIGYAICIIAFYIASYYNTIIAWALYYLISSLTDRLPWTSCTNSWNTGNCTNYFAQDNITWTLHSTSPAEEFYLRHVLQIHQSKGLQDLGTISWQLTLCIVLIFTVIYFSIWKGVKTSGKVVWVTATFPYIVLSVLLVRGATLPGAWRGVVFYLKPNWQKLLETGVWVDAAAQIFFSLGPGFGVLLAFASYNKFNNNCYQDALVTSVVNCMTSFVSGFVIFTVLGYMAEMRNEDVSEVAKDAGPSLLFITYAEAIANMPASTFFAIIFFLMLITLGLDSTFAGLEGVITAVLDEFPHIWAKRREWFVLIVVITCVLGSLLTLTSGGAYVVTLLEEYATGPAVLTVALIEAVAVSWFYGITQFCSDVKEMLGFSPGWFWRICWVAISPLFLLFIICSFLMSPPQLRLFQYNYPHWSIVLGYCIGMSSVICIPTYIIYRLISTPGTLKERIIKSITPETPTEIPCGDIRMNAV
Protocol text: Serotonin reuptake ([^3H]serotonin uptake) inhibition in rat brain synaptosomes
Format: biochemical
Experimental setup: mean ± S.D., n = 3; read-out: SERT Uptake IC50
Kindly state IC50 for each of the entries shown.

Use these answered entries as a reference point.
Cc1cc2nccn2cc1-c1nc(NCC(c2ccccc2)c2ccccc2)c2ccccc2n1 ... 3.2 nM
c1ccc(C(CNc2nc(-c3ccc4[nH]ccc4c3)nc3ccccc23)c2ccccc2)cc1 ... 68 nM
c1ccc(C(CNc2nc(-c3ccc4nccn4c3)nc3ccccc23)C2CCCCC2)cc1 (centres unmarked) ... 83 nM
Cn1cc2cc(-c3nc(NCC(c4ccccc4)c4ccccc4)c4ccccc4n3)ccc2n1 ... 106 nM

Could you tell me IC50 for each of these compounds? They are listed below.
1. Cc1cc2nccn2cc1-c1nc(NCC(O)(c2ccccc2)c2ccccc2)c2ccccc2n1
2. CS(=O)(=O)Nc1ccc(-c2nc(NCC(c3ccccc3)c3ccncc3)c3ccccc3n2)cc1 (centres unmarked)
3. c1ccc(C(CNc2nc(-c3cnc4nccn4c3)nc3ccccc23)c2ccccc2)cc1
4. CN(C)c1ccc(-c2nc(NCC(c3ccccc3)c3ccccc3)c3ccccc3n2)cn1

Reply:
1. 3 nM
2. 8.7 nM
3. 4.7 nM
4. 42 nM

###

Tested target: norepinephrine transporter (NET) (Rattus norvegicus, UniProt Q9WTR4)
Protocol text: Norepinephrine reuptake ([^3H]norepinephrine uptake) inhibition in rat brain synaptosomes
Experimental setup: read-out: NE Uptake EC50 (nM ± SD); rat brain synaptosomes; 10 nM [^3H]norepinephrine; 10 min, 37° C.
Quantity name: IC50 (nM)
Answers are plain numbers, in nM.

Could you tell me IC50 for each of these molecules? They are listed below.
1. Cc1cc2nccn2cc1-c1nc(NCC(c2ccccc2)c2ccc[nH]2)c2ccccc2n1 (centres unmarked)
2. CN(C)c1ncc(-c2nc(NCC(c3ccccc3)c3ccccc3)c3ccccc3n2)cn1
3. c1ccc(C(CNc2nc(-c3cnc4nccn4c3)nc3ccccc23)c2ccccc2)cc1
4. c1ccc(C(CNc2nc(-c3ccc4nccn4c3)nc3ccccc23)c2ccccc2)cc1
5. OC(CNc1nc(-c2ccc3[nH]ccc3c2)nc2ccccc12)(c1ccccc1)c1ccccc1
6. CN(C)c1ncc(-c2nc(NCC(O)(c3ccccc3)c3ccccc3)c3ccccc3n2)cn1
7. c1ccc(C(CNc2nc(-c3ccc4nccn4c3)nc3ccccc23)c2ccc[nH]2)cc1 (centres unmarked)

Reply:
11
181
63
52
203
259
88

Query: Lab request: please report IC50 under test system norepinephrine transporter (NET) (Rattus norvegicus, UniProt Q9WTR4) for c1ccc(C(CNc2nc(-c3ccc4nccn4c3)nc3ccccc23)C2CCCCC2)cc1 (centres unmarked)
Reply: 153

###

Give YES when the value for melting point is at least 90 °C. Give NO when it is less.

Query: For this compound, is measured melting point 90 °C or higher? c1ccc(C(CNc2nc(-c3ccc4ncsc4c3)nc3ccccc23)c2ccccc2)cc1 [compound 70]
Reply: YES

Query: For this compound, is measured melting point 90 °C or higher? c1ccc(C(CNc2nc(-c3ccc4ncnn4c3)nc3ccccc23)c2cccnc2)cc1 (centres unmarked) [compound 132]
Reply: YES

Query: For this compound, is measured melting point 90 °C or higher? COc1cc2nc(-c3cncnc3)nc(NCC(c3ccccc3)c3ccccc3)c2cc1OC [compound 25]
Reply: YES

Query: For this compound, is measured melting point 90 °C or higher? c1ccc(C(CNc2nc(-c3cccc4cc[nH]c34)nc3ccccc23)c2ccccc2)cc1 [compound 33]
Reply: NO

Query: For this compound, is measured melting point 90 °C or higher? c1ccc(C(CNc2nc(-c3ccc4[nH]nnc4c3)nc3ccccc23)c2ccccc2)cc1 [compound 63]
Reply: YES

Query: For this compound, is measured melting point 90 °C or higher? Cl.c1ccc(C(CNc2nc(-c3ccc4nccn4c3)nc3cc(OCCCN4CCOCC4)ccc23)c2ccccc2)cc1 [compound 125]
Reply: YES

Query: For this compound, is measured melting point 90 °C or higher? CC(C)(C)OC(=O)Nc1ncc(-c2nc(NCC(c3ccccc3)c3ccccc3)c3ccccc3n2)cn1 [compound 43]
Reply: YES

Query: For this compound, is measured melting point 90 °C or higher? Cn1ncc2c(-c3nc(NCC(c4ccccc4)c4ccccc4)c4ccccc4n3)cccc21 [compound 65]
Reply: YES

Query: For this compound, is measured melting point 90 °C or higher? Cc1nc(C)c(-c2nc(NCC(c3ccccc3)c3ccccc3)c3ccccc3n2)s1 [compound 54]
Reply: NO

###

Kindly state Emax for each of the entries shown.
Tested target: dopamine transporter (DAT) (Rattus norvegicus, UniProt P23977)
Sequence (P23977 whole entry): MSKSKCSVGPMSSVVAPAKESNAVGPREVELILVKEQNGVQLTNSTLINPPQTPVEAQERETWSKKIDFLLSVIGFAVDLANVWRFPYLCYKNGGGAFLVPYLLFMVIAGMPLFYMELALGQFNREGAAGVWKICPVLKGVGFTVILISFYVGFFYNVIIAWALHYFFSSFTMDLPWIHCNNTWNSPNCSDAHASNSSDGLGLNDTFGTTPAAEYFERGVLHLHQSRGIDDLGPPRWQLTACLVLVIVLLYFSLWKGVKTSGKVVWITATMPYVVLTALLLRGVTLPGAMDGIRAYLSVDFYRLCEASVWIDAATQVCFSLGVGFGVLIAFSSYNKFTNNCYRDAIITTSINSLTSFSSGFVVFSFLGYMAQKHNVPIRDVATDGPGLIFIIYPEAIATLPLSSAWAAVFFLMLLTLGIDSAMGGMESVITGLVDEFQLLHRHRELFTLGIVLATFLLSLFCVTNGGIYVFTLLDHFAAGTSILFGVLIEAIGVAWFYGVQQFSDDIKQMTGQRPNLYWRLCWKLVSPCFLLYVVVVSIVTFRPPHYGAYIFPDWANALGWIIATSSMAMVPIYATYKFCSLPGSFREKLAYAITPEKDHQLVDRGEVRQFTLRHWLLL
Protocol text: Dopamine reuptake ([^3H]dopamine uptake) inhibition in rat brain synaptosomes
Experimental setup: read-out: DA Uptake Emax (% I ± SD)
Express your answer as a number followed by its unit.

Use these answered entries as a reference point.
Cn1ccc2cc(-c3nc(NCC(c4ccccc4)c4ccccc4)c4ccccc4n3)ccc21 [compound 77] ... 69%
c1ccc(C(CNc2nc(-c3cccn4ccnc34)nc3ccccc23)c2ccccc2)cc1 [compound 147] ... 92%
Cc1cc2nccn2cc1-c1nc(NCC(O)c2ccccc2)c2ccccc2n1 (centres unmarked) [compound 186] ... 74%
c1ccc(C(Nc2nc(-c3cncnc3)nc3ccccc23)c2ccccc2)cc1 [compound 14] ... 74%
FC(F)(F)CNc1ncc(-c2nc(NCC(c3ccccc3)c3ccccc3)c3ccccc3n2)cn1 [compound 45] ... 58%
c1ccc(C(CNc2nc(-c3ccc4ncnn4c3)nc3ccccc23)c2cccnc2)cc1 (centres unmarked) [compound 132] ... 55%
Cc1cc2nccn2cc1-c1nc(NCC(c2ccncc2)c2ccncc2)c2ccccc2n1 [compound 157] ... 74%
c1ccc(CNc2ncc(-c3nc(NCC(c4ccccc4)c4ccccc4)c4ccccc4n3)cn2)cc1 [compound 46] ... 60%

Could you tell me Emax for each of these compounds? They are listed below.
1. COC(CNc1nc(-c2cn3ccnc3cc2C)nc2ccccc12)c1ccccc1 (centres unmarked) [compound 187]
2. Cc1cc2nccn2cc1-c1nc(NCC(c2ccccc2)C2CCCC2)c2ccccc2n1 (centres unmarked) [compound 194]
3. Cc1nc2ccc(-c3nc(NCC(c4ccccc4)c4ccccc4)c4ccccc4n3)cn2c1C [compound 91]
4. COc1cc2nc(-c3ccc4[nH]ccc4c3)nc(NCC(c3ccccc3)c3ccccc3)c2cc1OC [compound 24]
5. CCC(CNc1nc(-c2cn3ccnc3cc2C)nc2ccccc12)c1ccccc1 (centres unmarked) [compound 188]

Reply:
74%
74%
72%
100%
75%
